Exercise: for every item that follows, state its recorded concentration at 6 h.
# Test details: plasma concentration in rats after rectal administration
# Assay type: in vivo
# Measurement parameters: plasma; rat, rectal 100 mg/kg, 360 min
The response must be a number in ng/mL with no trailing unit.

Look up concentration at 6 h: CC(=O)N1CCN(C(=O)C(Cc2cccc(C(=N)N)c2)NS(=O)(=O)c2ccc3ccccc3c2)CC1 (stereo not drawn)
158

Moving on to the next compound: CCOC(=O)N1CCN(C(=O)C(Cc2cccc(C(=N)N)c2)NS(=O)(=O)c2ccc3ccccc3c2)CC1 (racemic) [X, reference compound]
448

What do you have for `CC(=O)N1CCN(C(=O)[C@H](Cc2cccc(C(=N)N)c2)NS(=O)(=O)c2ccc3ccccc3c2)CC1.Cl` ?
508

----------
# Test details: plasma concentration in rats after rectal administration
# Type: in vivo
# Measurement parameters: plasma; rat, rectal 20 mg/kg, 360 min
Endpoint name: concentration at 6 h (ng/mL)
Field format: number, assumed ng/mL, no unit text.

Value lookup for concentration at 6 h; key = Cl.Cl.N=C(N)c1cccc(C[C@H](NS(=O)(=O)c2ccc3ccccc3c2)C(=O)N2CCN(CCO)CC2)c1 [Compound 3]
34

----------
# Test details: plasma level in the stasis-induced thrombosis study, rectal application
# Assay type: in vivo
# Measurement parameters: rat, rectal 100 mg/kg, 30 min
Endpoint name: concentration at 0.5 h (ng/mL)
Number in ng/mL, nothing else.

Give its concentration at 0.5 h value. Item: CC(=O)N1CCN(C(=O)[C@H](Cc2cccc(C(=N)N)c2)NS(=O)(=O)c2ccc3ccccc3c2)CC1.Cl [Compound 2]
28700

----------
Give concentration at 3 h for every item shown.
# Test details: concentration in rat plasma in the anticoagulant study after rectal application
# Assay type: in vivo
# Measurement parameters: plasma, rectal 20 mg/kg, 180 min
A number alone suffices; assume ng/mL.

Suppose we examine the compound `CC(=O)N1CCN(C(=O)[C@H](Cc2cccc(C(=N)N)c2)NS(=O)(=O)c2ccc3ccccc3c2)CC1.Cl` ; what concentration at 3 h value has been reported?
660

# iterate: `CS(=O)(=O)N1CCN(C(=O)[C@H](Cc2cccc(C(=N)N)c2)NS(=O)(=O)c2ccc3ccccc3c2)CC1.Cl`
195

----------
I'd be grateful if you could share measured Ki for these entries.
# Target or system: factor Xa (Bos taurus, UniProt P00743)
# Sequence (P00743 234-492 limits assumed): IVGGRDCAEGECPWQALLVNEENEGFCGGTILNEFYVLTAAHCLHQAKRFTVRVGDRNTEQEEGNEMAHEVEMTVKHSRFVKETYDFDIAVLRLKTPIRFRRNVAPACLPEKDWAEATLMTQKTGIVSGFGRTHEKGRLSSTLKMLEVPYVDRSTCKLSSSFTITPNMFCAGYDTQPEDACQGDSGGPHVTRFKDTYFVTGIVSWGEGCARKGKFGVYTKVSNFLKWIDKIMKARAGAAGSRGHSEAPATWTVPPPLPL
# Sequence (P00743 41-180 partner limits assumed): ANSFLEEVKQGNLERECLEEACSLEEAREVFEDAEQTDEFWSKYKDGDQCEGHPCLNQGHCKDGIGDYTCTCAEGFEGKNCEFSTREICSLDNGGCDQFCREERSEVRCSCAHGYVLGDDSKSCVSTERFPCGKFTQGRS
Field: numeric (µM). Do not append units.

If you can, please state the reported Ki value of CS(=O)(=O)N1CCN(C(=O)C(Cc2cccc(C(=N)N)c2)NS(=O)(=O)c2ccc3ccccc3c2)CC1 (stereo not shown) [AMD 2-Naph SO2 Me] .
22

Please give the result for CN(C)C(=O)N1CCN(C(=O)[C@H](Cc2cccc(C(=N)N)c2)NS(=O)(=O)c2ccc3ccccc3c2)CC1 [Compound 6] too.
15

Same for COCC(=O)N1CCN(C(=O)C(Cc2cccc(C(=N)N)c2)NS(=O)(=O)c2ccc3ccccc3c2)CC1 (stereo not shown) [AMD 2-Naph COCH2 OMe]
16

Check N=C(N)c1cccc(CC(NS(=O)(=O)c2ccc3ccccc3c2)C(=O)N2CCN(C(=O)Cc3cccs3)CC2)c1 (stereo not shown) [AMD 2-Naph drawing 11] too.
16

Then what about the molecule N=C(N)c1cccc(CC(NS(=O)(=O)c2ccc3ccccc3c2)C(=O)N2CCN(CCO)CC2)c1 (stereo not shown) [AMD 2-Naph EtOH] ?
35

And then N=C(N)c1cccc(CC(NS(=O)(=O)c2ccc3ccccc3c2)C(=O)N2CCN(S(=O)(=O)c3ccccc3)CC2)c1 (stereo not shown) [AMD 2-Naph SO2 -Ph] , what is it?
24

// next record CCS(=O)(=O)N1CCN(C(=O)C(Cc2cccc(C(=N)N)c2)NS(=O)(=O)c2ccc3ccccc3c2)CC1 (stereo not shown) [AMD 2-Naph SO2 Et]
24

What do we get for CN(C)C(=O)N1CCN(C(=O)C(Cc2cccc(C(=N)N)c2)NS(=O)(=O)c2cccc3ccccc23)CC1 (stereo not shown) [AMD 1-Naph CO2 N(Me)2] ?
5.9

Consider next the molecule COc1cc(C)c(S(=O)(=O)N2CCN(C(=O)C(Cc3cccc(C(=N)N)c3)NS(=O)(=O)c3ccc4ccccc4c3)CC2)c(C)c1C (stereo not shown) [AMD 2-Naph SO2 -Mtr] in the same way.
25

For CC(=O)N1CCN(C(=O)[C@H](Cc2cccc(C(=N)N)c2)NS(=O)(=O)c2ccc3ccccc3c2)CC1.Cl [Compound 2, hydrochloride] then?
35

Moving on to the next molecule: Cc1ccc(S(=O)(=O)N2CCN(C(=O)C(Cc3cccc(C(=N)N)c3)NS(=O)(=O)c3ccc4ccccc4c3)CC2)cc1 (stereo not shown) [AMD 2-Naph SO2 -Tol]
24

Query N=C(N)c1cccc(CC(NS(=O)(=O)c2ccc3ccccc3c2)C(=O)N2CCN(c3ncccn3)CC2)c1 (stereo not shown) [AMD 2-Naph 2-Pym] next
14

Here is the next molecule: Cc1c(C)c(S(=O)(=O)NC(Cc2cccc(C(=N)N)c2)C(=O)N2CCN(S(C)(=O)=O)CC2)c(C)c2c1OC(C)(C)CC2 (stereo not shown) [AMD Pmc SO2 Me]
75
